molecular target: full length rTrkA and mNGF (Rattus norvegicus); construct: co-expressing full length rTrkA and mNGF; expressed in transfected cells; host or cells: Ba/F3 cells; experiment: Inhibition of proliferation of Ba/F3 cells co-expressing full length rTrkA and mNGF (BaF3/TrkA-NFG); format: cell-based; settings: BaF3 TRKA-NGF cells, CTG readout
Sequence (P35739 33-799): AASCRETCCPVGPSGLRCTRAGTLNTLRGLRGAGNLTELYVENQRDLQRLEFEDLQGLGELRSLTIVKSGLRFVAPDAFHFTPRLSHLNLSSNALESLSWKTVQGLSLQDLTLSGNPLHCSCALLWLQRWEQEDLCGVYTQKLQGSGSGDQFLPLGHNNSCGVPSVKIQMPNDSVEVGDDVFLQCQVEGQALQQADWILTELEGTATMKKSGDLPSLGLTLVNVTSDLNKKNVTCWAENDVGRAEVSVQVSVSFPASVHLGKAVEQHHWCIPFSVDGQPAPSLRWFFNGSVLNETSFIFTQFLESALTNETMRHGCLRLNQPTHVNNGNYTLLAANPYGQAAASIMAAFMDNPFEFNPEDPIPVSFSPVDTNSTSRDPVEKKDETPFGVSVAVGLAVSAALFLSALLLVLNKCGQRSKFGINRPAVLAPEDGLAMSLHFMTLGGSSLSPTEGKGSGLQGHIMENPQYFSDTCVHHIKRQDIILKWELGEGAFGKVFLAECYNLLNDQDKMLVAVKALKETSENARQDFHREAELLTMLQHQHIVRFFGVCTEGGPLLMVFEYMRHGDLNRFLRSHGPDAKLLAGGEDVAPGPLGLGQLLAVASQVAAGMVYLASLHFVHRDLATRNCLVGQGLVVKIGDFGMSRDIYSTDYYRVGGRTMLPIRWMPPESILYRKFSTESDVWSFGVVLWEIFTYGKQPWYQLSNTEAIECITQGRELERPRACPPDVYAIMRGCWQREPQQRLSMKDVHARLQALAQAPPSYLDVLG
Sequence (P01139 122-241 partner): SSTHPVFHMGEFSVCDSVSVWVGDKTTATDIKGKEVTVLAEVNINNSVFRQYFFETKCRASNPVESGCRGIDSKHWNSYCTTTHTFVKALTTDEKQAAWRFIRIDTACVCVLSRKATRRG
The label is True for BaF3 TRKA-NGF CTG IC 50 below 600 nM and False for BaF3 TRKA-NGF CTG IC 50 equal to or exceeding 600 nM.

Use these answered entries as a reference point.
{"columns": ["compound", "qualitative label"],
 "data": [
  ["N#Cc1cc(-c2cnc3ccc(N4CCOCC4c4cccc(F)c4)nn23)ccc1N1CCC(O)CC1 (stereo not shown) [Table 2-Compound 7]", "True"],
  ["Fc1cccc(C2CCCN2c2ccc3ncc(-c4csc(N5CCCCC5)n4)n3n2)c1 (stereo not shown) [Table 3-Compound 6]", "True"],
  ["Fc1cccc(C2CCCN2c2ccc3ncc(-c4cc5ccccc5nc4F)n3n2)c1 (stereo not shown) [Table 7-Compound 153]", "False"],
  ["N#Cc1cccc(-c2cnc3ccc(N4CCC(=O)N4c4cccc(F)c4)nn23)c1 [Table 3-Compound 34]", "True"],
  ["CCOC(=O)N1CCC(n2c(=O)[nH]c3cc(-c4cnc5ccc(N6CCOCC6c6cccc(F)c6)nn45)ccc32)CC1 (stereo not shown) [Table 2-Compound 19]", "False"]
]}

Say whether its BaF3 TRKA-NGF CTG IC 50 is strictly beneath 600 nM. Entry: CN(C)CCNC(=O)C1CCN(c2cccc(-c3cnc4ccc(N5CCCC5c5cccc(F)c5)nn34)n2)CC1 (stereo not shown) [Table 7-Compound 115]
True

Say whether its BaF3 TRKA-NGF CTG IC 50 is strictly beneath 600 nM. Entry: Fc1cccc(C2COCCN2c2ccc3ncc(-c4ccccn4)n3n2)c1 (stereo not shown) [Table 2-Compound 4]
True
